test-details: Leishmania major promastigote growth inhibition, primary screen (AID 1063);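 also: promastigotes grown with compound for 44 hours at 28 °C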
study-conditions: Leishmania major promastigotes, resazurin fluorescence viability; at 10 µM; stronger effect = higher value
Among all 200,000 compounds or so, about 18,000 (9%) were called active. The sample as a whole holds a higher share of actives than the screen did.
Here, each record is paired with measured inhibition data.
Write it as a number; the unit % goes unstated.

>  <compound>
CCCN(CCC)CCNC(=O)c1cc2c(C)nc3ccccc3c2o1

>  <units-of-measure>
%

>  <inhibition>
56.9

$$$$
>  <compound>
O=C(NCc1ccccn1)c1cc(Br)ccc1Cl

>  <units-of-measure>
%

>  <inhibition>
17.5

$$$$
>  <compound>
O=S(=O)(Cc1ccccc1)c1nc2ccccc2n1Cc1ccccn1

>  <units-of-measure>
%

>  <inhibition>
10.6

$$$$
>  <compound>
CCOC(=O)Cc1csc(SCc2cc(=O)oc3cc(O)ccc23)n1

>  <units-of-measure>
%

>  <inhibition>
-10.2

$$$$
>  <compound>
O=C(c1cncc(Br)c1)N1CCN(c2ccc([N+](=O)[O-])cc2)CC1

>  <units-of-measure>
%

>  <inhibition>
57.2

$$$$
>  <compound>
COc1cccc(C(=O)Oc2cc(C)[nH]c(=O)c2[N+](=O)[O-])c1

>  <units-of-measure>
%

>  <inhibition>
5.78

$$$$

Consider the compound CCC(C)NC(=O)/C=C/c1ccc(S(=O)(=O)NCc2ccco2)cc1 (stereo unspecified) and give its recorded inhibition.
9.36

Consider the compound "CCOC(=O)Cc1csc(NC(=O)C(C)(C)C)n1" and give its recorded inhibition.
-0.74

Consider the compound "CCOc1ccccc1NC(=O)c1cccnc1" and give its recorded inhibition.
-2.23
